Cited source: ChEMBL document CHEMBL3124890

Here, each record is paired with measured MIC data.
# System: Mycobacterium tuberculosis
# assay-notes: […]
# Format: functional, NHN382
Give a bare numeral; the unit mg/L is implied.

Consider the following illustrative entries.
- CCc1ccc(C(=O)Nc2cc3nc(C4CCCCC4)[nH]c3cc2N(C)C)cc1: 0.16
- CCCCOC(=O)Nc1cc2nc(C3CCCCC3)[nH]c2cc1N(CC)CC: 1.25
- NNC(=O)c1ccncc1 [ISONIAZID]: 0.25

// next entry
Exercise: Suppose we examine the molecule "CCCCOC(=O)Nc1cc2nc(C3CCCCC3)[nH]c2cc1N(C)C" ; what MIC value has been reported?
Key: 0.06

---

# Tested on: Mycobacterium tuberculosis
# assay-notes: […]
# Type: functional, TN587
Here, each record is paired with measured MIC data.
Give a bare numeral; the unit µg/mL is implied.

Consider the following illustrative entries.
• CCCCOC(=O)Nc1cc2nc(C3CCCCC3)[nH]c2cc1N(CC)CC = 1.25
• CCc1ccc(C(=O)Nc2cc3nc(C4CCCCC4)[nH]c3cc2N(C)C)cc1 = 0.16
• NNC(=O)c1ccncc1 = 0.25

// next entry
Exercise: Identify the measured MIC of "CCCCOC(=O)Nc1cc2nc(C3CCCCC3)[nH]c2cc1N(C)C" for Mycobacterium tuberculosis.
Key: 0.13
